assay: Single-dose clinical study: pharmacokinetics, noncompartmental analysis; assay type: in vivo, human; settings: human, plasma; Cohort 5, 60 mg single IV bolus, hemodialysis subjects, geometric mean
ATTRIBUTE MEASURED: AUC (ng·h/mL)
Numbers only, in ng·h/mL.

Prompt: Entry "CC(=O)N[C@H](CSSC[C@H](N)C(=O)O)C(=O)N[C@H](C)C(=O)N[C@H](CCCNC(=N)N)C(=O)N[C@H](CCCNC(=N)N)C(=O)N[C@H](CCCNC(=N)N)C(=O)N[C@H](C)C(=O)N[C@H](CCCNC(=N)N)C(N)=O" has what AUC?
Completion: 14800

----------
test: Single-dose clinical study: pharmacokinetics, noncompartmental analysis; type: in vivo, human; settings: human, plasma; Cohort 3, 20 mg single IV bolus, hemodialysis subjects, geometric mean; read-out: CL (converted)
ATTRIBUTE MEASURED: clearance (mL/min)
One number for each entry, in mL/min.

Prompt: Entry "CC(=O)N[C@H](CSSC[C@H](N)C(=O)O)C(=O)N[C@H](C)C(=O)N[C@H](CCCNC(=N)N)C(=O)N[C@H](CCCNC(=N)N)C(=O)N[C@H](CCCNC(=N)N)C(=O)N[C@H](C)C(=O)N[C@H](CCCNC(=N)N)C(N)=O" has what clearance?
Completion: 20.2
